Where do the numbers come from? From a melting point compilation (Tetko et al.).

Parameter: melting point. Scope: all listed entries.

                                   compound   readout_type     data_value
0  CC(C(=O)O)N1C(=O)C2CC=CCC2C1=O (stereo not drawn)  melting point  123 to 125 °C

Return value of melting point for input CCOC(=O)c1sc(-c2cccc(Br)c2)cc1N , no commentary.
97 to 99 °C

Quick one: give measured melting point for Nc1ccccc1C(=O)Nc1ccc(Cl)cc1
44 to 45 °C

---

Examples of compounds with documented melting point follow.

>>> df
                                   compound     data_value
0           CC(=O)Nc1cccc(N2C(=O)C=CC2=O)c1  185 to 187 °C
1        O=C(O)c1cccc(S(=O)(=O)NCc2ccco2)c1  190 to 192 °C
2        Cn1c(=O)[nH]c(=O)c2cc(C(=O)O)cnc21  316 to 318 °C
3                  Nc1ccn(CC(=O)N2CCOCC2)n1  168 to 170 °C
4                 O=C(O)c1c[nH]c2cc(F)ccc12  228 to 230 °C
5  CC(C)(C)OC(=O)N1C2CCC1CC(CC(=O)O)C2 (configuration not stated)  104 to 106 °C

Hello, please tell me recorded melting point for this one: N#CCc1ccccc1CC(=O)O
99 to 101 °C

Consider the compound Nc1ccc(S(F)(F)(F)(F)F)cc1Br . State its measured melting point.
58 to 60 °C

Could you please provide reported melting point for O=C(O)c1cc(F)cc2cccnc12 ? Thanks!
159 to 161 °C

Name the recorded melting point of the item O=C1NC(=O)C2(CCNC2)N1 (configuration not stated) in your answer.
201 to 203 °C

Supply melting point value. Item: Cc1cc(Cl)nc2c(C(C)C)cccc12
43 to 45 °C

Please supply the value of reported melting point for the item O=C(O)c1cnc(-c2ccc3c(c2)CCO3)s1
215 to 217 °C

For FC(F)(F)c1ccc2sc(Cl)nc2c1 , write its melting point.
57 to 59 °C

# return recorded melting point for input CC(C)c1nn(-c2ccc(Br)cc2)cc1C=O
99 to 101 °C

Output melting point of O=C(O)c1ccc(Cl)cc1-n1cccc1
142 to 144 °C

Note melting point for the compound shown: O=S(=O)(Nc1cccc(Cl)c1)c1ccc2oc(S)nc2c1
173 to 175 °C
